- protocol-summary: Ocular tissue concentrations (aqueous humor, vitreous humor, iris, retina, choroid, cornea) after topical ocular, subcutaneous and intravitreal administration
- Format: in vivo, New Zealand White rabbits
- recorded-conditions: New Zealand White, rabbit, vitreous humor, other: intravitreal, 2.5 mg per eye, Group 4 intravitreal 2.5 mg per eye; 48 hr; read-out: vitreous humor Conc., individual eyes (OD, OS)
Counter-ions that a name gives are not always drawn.
measured-quantity: concentration at 48 h (µg/mL)
One number for each entry, in µg/mL.

Q: Suppose we examine the molecule COC(=O)N[C@@H](Cc1ccccc1)C(=O)N[C@@H](Cc1ccc(NS(=O)(=O)O)cc1)c1csc(-c2cccs2)n1 [Compound 1 sodium salt] ; what concentration at 48 h value has been reported?
Ans: 85.2

====

- protocol-summary: Ocular tissue concentrations (aqueous humor, vitreous humor, iris, retina, choroid, cornea) after topical ocular, subcutaneous and intravitreal administration
- Type: in vivo, New Zealand White rabbits
- recorded-conditions: New Zealand White, rabbit, choroid, other: intravitreal, 2.5 mg/eye, Choroid, 48 hr, OD; sodium salt, intravitreal 2.5 mg/eye, Group 4; read-out: Choroid Conc. (ng/g) OD
measured-quantity: concentration at 48 hr (ng/g)
Numbers only, in ng/g.

Q: Suppose we examine the compound COC(=O)N[C@@H](Cc1ccccc1)C(=O)N[C@@H](Cc1ccc(NS(=O)(=O)O)cc1)c1csc(-c2cccs2)n1 [Compound 1] ; what concentration at 48 hr value has been reported?
Ans: 38300

====

- protocol-summary: Ocular tissue concentrations (aqueous humor, vitreous humor, iris, retina, choroid, cornea) after topical ocular, subcutaneous and intravitreal administration
- Type: in vivo, New Zealand White rabbits
- recorded-conditions: New Zealand White, rabbit, cornea, other: intravitreal, 2.5 mg/eye, Cornea, 48 hr; sodium salt, intravitreal 2.5 mg/eye, Group 4; read-out: Cornea Avg.
- Procedure: To measure the concentration of Compound 1 in plasma and ocular tissues following topical ocular, subcutaneous, and intravitreal administration, New Zealand White rabbits were administered Compound 1, and plasma and ocular samples were collected at pre-determined time points. […] Ocular tissue samples from both eyes of each animal were collected and weights were recorded. Plasma and ocular tissue sample concentrations of Compound 1 were determined by LC-MS/MS. […]
measured-quantity: concentration at 48 hr (ng/g)
Numbers only, in ng/g.

Q: Suppose we examine the compound COC(=O)N[C@@H](Cc1ccccc1)C(=O)N[C@@H](Cc1ccc(NS(=O)(=O)O)cc1)c1csc(-c2cccs2)n1 ; what concentration at 48 hr value has been reported?
Ans: 7530

====

- protocol-summary: Ocular tissue concentrations (aqueous humor, vitreous humor, iris, retina, choroid, cornea) after topical ocular, subcutaneous and intravitreal administration
- Type: in vivo, New Zealand White rabbits
- recorded-conditions: New Zealand White, rabbit, vitreous humor, topical, 1.2 mg/eye, Group 1 topical ocular 1.2 mg/eye; 2.0 hr; read-out: vitreous humor Average Conc.
Structures can show the parent of a compound that is named as a salt.
measured-quantity: concentration at 2 hr (ng/g)
One number for each entry, in ng/g.

Q: Suppose we examine the molecule COC(=O)N[C@@H](Cc1ccccc1)C(=O)N[C@@H](Cc1ccc(NS(=O)(=O)O)cc1)c1csc(-c2cccs2)n1 [Compound 1 sodium salt] ; what concentration at 2 hr value has been reported?
Ans: 3.33

====

- protocol-summary: Ocular tissue concentrations (aqueous humor, vitreous humor, iris, retina, choroid, cornea) after topical ocular, subcutaneous and intravitreal administration
- Format: in vivo, New Zealand White rabbits
- recorded-conditions: New Zealand White, rabbit, cornea, subcutaneous, 5 mg/kg/dose, TABLE 16: Cornea, 1 hr; free acid, subcutaneous 5 mg/kg/dose, Group 3; read-out: Cornea Average
measured-quantity: concentration at 1 h (ng/g)
One number for each entry, in ng/g.

Q: Suppose we examine the compound COC(=O)N[C@@H](Cc1ccccc1)C(=O)N[C@@H](Cc1ccc(NS(=O)(=O)O)cc1)c1csc(-c2cccs2)n1 ; what concentration at 1 h value has been reported?
Ans: 12.2

====

- protocol-summary: Ocular tissue concentrations (aqueous humor, vitreous humor, iris, retina, choroid, cornea) after topical ocular, subcutaneous and intravitreal administration
- Type: in vivo, New Zealand White rabbits
- recorded-conditions: New Zealand White, rabbit, iris, subcutaneous, 5 mg/kg/dose, TABLE 16: Iris, 2 hr, OS; free acid, subcutaneous 5 mg/kg/dose, Group 3; read-out: Iris Conc. (ng/g) OS
- Protocol: To measure the concentration of Compound 1 in plasma and ocular tissues following topical ocular, subcutaneous, and intravitreal administration, New Zealand White rabbits were administered Compound 1, and plasma and ocular samples were collected at pre-determined time points. […] Ocular tissue samples from both eyes of each animal were collected and weights were recorded. Plasma and ocular tissue sample concentrations of Compound 1 were determined by LC-MS/MS. […]
measured-quantity: concentration at 2 h

Q: Suppose we examine the molecule COC(=O)N[C@@H](Cc1ccccc1)C(=O)N[C@@H](Cc1ccc(NS(=O)(=O)O)cc1)c1csc(-c2cccs2)n1 [Compound 1] ; what concentration at 2 h value has been reported?
Ans: 29.5 ng/g

====

- protocol-summary: Ocular tissue concentrations (aqueous humor, vitreous humor, iris, retina, choroid, cornea) after topical ocular, subcutaneous and intravitreal administration
- Type: in vivo, New Zealand White rabbits
- recorded-conditions: New Zealand White, rabbit, vitreous humor, topical, 1.2 mg/eye, Group 1 topical ocular 1.2 mg/eye; 4.0 hr; read-out: vitreous humor Average Conc.
Structures can show the parent of a compound that is named as a salt.
measured-quantity: concentration at 4 hr (ng/g)
One number for each entry, in ng/g.

Q: Suppose we examine the compound COC(=O)N[C@@H](Cc1ccccc1)C(=O)N[C@@H](Cc1ccc(NS(=O)(=O)O)cc1)c1csc(-c2cccs2)n1 [Compound 1 sodium salt] ; what concentration at 4 hr value has been reported?
Ans: 4.01

====

- protocol-summary: Plasma concentrations and pharmacokinetic parameters after topical ocular, subcutaneous and intravitreal administration
- Format: in vivo, New Zealand White rabbits
- recorded-conditions: New Zealand White, rabbit, plasma, topical or ocular, 1.2 mg, plasma; topical ocular 1.2 mg/eye (~0.7 mg/kg/dose), solution; read-out: AUClast (± SE)
Where a name gives a salt, the structure may show the parent alone.
measured-quantity: AUC(0-t)
Returns: string containing the number followed by the unit.

Q: Suppose we examine the compound COC(=O)N[C@@H](Cc1ccccc1)C(=O)N[C@@H](Cc1ccc(NS(=O)(=O)O)cc1)c1csc(-c2cccs2)n1 [Compound 1 sodium salt] ; what AUC(0-t) value has been reported?
Ans: 11.8 ng·h/mL

====

- protocol-summary: Ocular tissue concentrations (aqueous humor, vitreous humor, iris, retina, choroid, cornea) after topical ocular, subcutaneous and intravitreal administration
- Format: in vivo, New Zealand White rabbits
- recorded-conditions: New Zealand White, rabbit, choroid, subcutaneous, 5 mg/kg/dose, Choroid, 0.5 hr; sodium salt, subcutaneous 5 mg/kg/dose, Group 2; read-out: Choroid Average
measured-quantity: concentration at 0.5 h (ng/g)
Numbers only, in ng/g.

Q: Suppose we examine the compound COC(=O)N[C@@H](Cc1ccccc1)C(=O)N[C@@H](Cc1ccc(NS(=O)(=O)O)cc1)c1csc(-c2cccs2)n1 ; what concentration at 0.5 h value has been reported?
Ans: 266

====

- protocol-summary: Plasma concentrations and pharmacokinetic parameters after topical ocular, subcutaneous and intravitreal administration
- Type: in vivo, New Zealand White rabbits
- recorded-conditions: New Zealand White, rabbit, plasma, subcutaneous, 5 mg/kg/dose, subcutaneous 5 mg/kg/dose, suspension; 2.0 hr; read-out: plasma Conc., individual rabbit
- Procedure: To measure the concentration of Compound 1 in plasma and ocular tissues following topical ocular, subcutaneous, and intravitreal administration, New Zealand White rabbits were administered Compound 1, and plasma and ocular samples were collected at pre-determined time points. […] Each blood sample was collected on Day 3 post dose at pre-determined time points from the rabbits via an ear vessel and placed into chilled polypropylene tubes containing sodium heparin as an anticoagulant. […]
measured-quantity: concentration at 2 hr (ng/mL)
One number for each entry, in ng/mL.

Q: Suppose we examine the compound COC(=O)N[C@@H](Cc1ccccc1)C(=O)N[C@@H](Cc1ccc(NS(=O)(=O)O)cc1)c1csc(-c2cccs2)n1 [Compound 1 free acid] ; what concentration at 2 hr value has been reported?
Ans: 194

====

- protocol-summary: Ocular tissue concentrations (aqueous humor, vitreous humor, iris, retina, choroid, cornea) after topical ocular, subcutaneous and intravitreal administration
- Assay type: in vivo, New Zealand White rabbits
- recorded-conditions: New Zealand White, rabbit, choroid, other: intravitreal, 2.5 mg/eye, Choroid, 72 hr, left eye, intravitreal 2.5 mg/eye (group 5), individual animals; read-out: Conc. (ng/g) OS
measured-quantity: concentration at 72 hr (ng/g)
One number for each entry, in ng/g.

Q: Suppose we examine the compound COC(=O)N[C@@H](Cc1ccccc1)C(=O)N[C@@H](Cc1ccc(NS(=O)(=O)O)cc1)c1csc(-c2cccs2)n1 [Compound 1] ; what concentration at 72 hr value has been reported?
Ans: 29300

====

- protocol-summary: Plasma concentrations and pharmacokinetic parameters after topical ocular, subcutaneous and intravitreal administration
- Assay type: in vivo, New Zealand White rabbits
- recorded-conditions: New Zealand White, rabbit, plasma, other: intravitreal, 2.5 mg/eye, intravitreal 2.5 mg/eye (~1.54 mg/kg), suspension; 3.0 hr; read-out: plasma Average
measured-quantity: concentration at 3 h (ng/mL)
One number for each entry, in ng/mL.

Q: Suppose we examine the compound COC(=O)N[C@@H](Cc1ccccc1)C(=O)N[C@@H](Cc1ccc(NS(=O)(=O)O)cc1)c1csc(-c2cccs2)n1 [Compound 1 free acid] ; what concentration at 3 h value has been reported?
Ans: 24.4

Recorded values, source patent US11666558B2.
